MEASURED_ON: human recombinant casein kinase 1ε (Homo sapiens, UniProt P49674)
Construct: purchased INVITROGEN PV3500
Sequence (P49674 whole entry): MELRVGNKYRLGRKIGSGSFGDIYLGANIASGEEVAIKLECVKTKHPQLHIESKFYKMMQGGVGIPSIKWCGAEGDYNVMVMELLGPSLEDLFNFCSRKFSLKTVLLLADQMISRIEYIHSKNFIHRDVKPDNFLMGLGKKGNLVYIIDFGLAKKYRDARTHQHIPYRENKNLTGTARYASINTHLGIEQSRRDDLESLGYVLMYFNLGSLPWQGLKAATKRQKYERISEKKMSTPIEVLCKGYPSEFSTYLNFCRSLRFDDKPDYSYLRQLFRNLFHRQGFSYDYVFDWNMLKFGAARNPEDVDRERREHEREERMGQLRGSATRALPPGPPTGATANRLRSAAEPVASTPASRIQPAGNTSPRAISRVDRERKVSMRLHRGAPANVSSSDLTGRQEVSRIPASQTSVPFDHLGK
TEST_NAME: Casein kinase 1ε inhibition assay (Z'-LYTE Ser/Thr 11 Peptide)
Assay type: biochemical
COND: 0.3 μg/ml compound, 0.5 μg/ml enzyme, 1.0 μM peptide, 20 μM ATP; 15 min pre-reaction, 2 hours; read-out: Casein kinase 1ε inhibitory rate
Label Condition met when inhibition at 0.3 µg/mL is at or above 50%; anything below gets Condition not met.

COMPOUND	MEASURED_ON	ASSIGNED_CATEGORY
COc1ccc(/C=C2\N=C(c3cccs3)OC2=O)cc1	human recombinant casein kinase 1ε (Homo sapiens, UniProt P49674)	Condition met
COC(=O)c1ccc(/C=C2\N=C(c3cccs3)OC2=O)cc1	human recombinant casein kinase 1ε (Homo sapiens, UniProt P49674)	Condition met
O=C1OC(c2cccs2)=N/C1=C\c1cncc(F)c1 [Example 3]	human recombinant casein kinase 1ε (Homo sapiens, UniProt P49674)	Condition met
O=C1OC(c2cccs2)=N/C1=C\c1cocn1 [Example 13]	human recombinant casein kinase 1ε (Homo sapiens, UniProt P49674)	Condition not met
O=C1OC(/C=C/c2ccccc2)=NC/1=C\c1cccnc1	human recombinant casein kinase 1ε (Homo sapiens, UniProt P49674)	Condition met
O=C1OC(c2cccs2)=N/C1=C\c1ccc([N+](=O)[O-])c(Cl)c1	human recombinant casein kinase 1ε (Homo sapiens, UniProt P49674)	Condition met
O=C1OC(c2cccs2)=N/C1=C\c1csnn1 [Example 14]	human recombinant casein kinase 1ε (Homo sapiens, UniProt P49674)	Condition not met
COc1cc(/C=C2\N=C(c3cccs3)OC2=O)ccn1 [Example 9]	human recombinant casein kinase 1ε (Homo sapiens, UniProt P49674)	Condition met
COc1ccc(/C=C2\N=C(c3cccs3)OC2=O)c(Cl)n1 [Example 19]	human recombinant casein kinase 1ε (Homo sapiens, UniProt P49674)	Condition met
COc1ccc(/C=C2\N=C(c3cccs3)OC2=O)c(C)n1 [Example 18]	human recombinant casein kinase 1ε (Homo sapiens, UniProt P49674)	Condition not met
O=C1OC(c2cccs2)=N/C1=C\c1cc2c(cc1Cl)OCO2	human recombinant casein kinase 1ε (Homo sapiens, UniProt P49674)	Condition met
